Recorded refractive index by entry
assay: refractive index (Na D-line) (dimensionless); xn = mol fraction of the nth substance listed
measurement_setup: 298.15 K; 101.32 kPa; Liquid; Standard Abbe refractometry; x1 = 0.4
Keep the answer to the number alone.

Field: example entries. Status: answers known.
compound	refractive index
COCCOC [1,2-dimethoxyethane] + CCO	1.3696
COCCOCCOCCOC [2,5,8,11-tetraoxadodecane] + CCO	1.402

Query block: Returns the measured refractive index for the input compound. Input: COCCOCCOC [2,5,8-trioxanonane] + CCO
Result block: 1.3889

Query block: How about COCCOCCOCCOCCOC [2,5,8,11,14-pentaoxapentadecane] + CCO ?
Result block: 1.412
